These data points were gathered from patent US20170166631A1.

- system.name: GST-HttExon1Q21 (recombinant huntingtin exon 1 protein with 21 polyQ repeats fused to an N-terminal GST tag) (;human, UniProt P08515 1-218 = GST; P42858 1-88)
- Sequence (P08515 1-218, tags or fused parts left off): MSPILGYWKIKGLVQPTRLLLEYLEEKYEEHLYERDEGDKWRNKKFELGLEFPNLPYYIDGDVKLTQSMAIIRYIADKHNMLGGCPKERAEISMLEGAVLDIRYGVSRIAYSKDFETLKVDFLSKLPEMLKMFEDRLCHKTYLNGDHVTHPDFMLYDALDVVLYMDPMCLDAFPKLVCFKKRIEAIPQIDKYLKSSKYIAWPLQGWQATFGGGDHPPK
- assay.name: ELISA
property.measured: EC50

Would you please look over these solved cases?
binder	EC50
NI-302.44D7 (antibody, V domains shown) VH: EVQLVQSGGGLVQPGGSLRLSCAASGFTFSSYAMSWVRQAPGKGLEWVSGIGYSDTSTYYADSVKGRFTVSRDISKNTLYLQMNSLRAEDTAVYYCAKGTRDYYGMDVWGQGTMVTVSS VL: QTVVTQEPSFSVSPGGTVTLTCGLSSGSVSTSYYPSWYQQTPGRAPRTLIYSTNTRSSGVPDRFSGSILGNKAALTITGAQADDESDYYCVLFMGSGIGVFGGGTRLTVL	5.4 nM
NI-302.11H6 (antibody, V domains shown) VH: EVQLVQSGAVMKKPGDSVRVSCRASTYSFSTYSFTWVRQVPGQGLEWMGWISAYNGHTNYVDSFQGRLTLTTDTSASTAYMELRSLRSDDTAIYYCAAVDTTYYYYGMDVWGQGTLVTVSS VL: QTVVTQEPTFSVSPGGTVTLTCALRFGSVSSSYYPSWFQQTPGQAPRTLIYSTNTRSSGVPARFSGSILGNKAALTIAGAQANDEADYYCVLYMGSGIGVFGGGTKLTVL	0.2 nM

Challenge: Tell me the measured EC50 of NI-302.39G12 (antibody, V domains shown) VH: EVQLVQSGGGLVHPWGSLRLSCAASGFSVSNYAITWVRRAPGKGLQYISVIYRDGRTYYGDSVRGRFTISRDDSKNTLYLQMNSLRFEDTAVYYCARAHGQYYYGVDVWGQGTTVTVSS VL: DVVMTQSPLSLSVSPGEPASISCRSSQSLLHSNGYNYLDWYRQKPGQSPQLLIYLSSNRPSGVPDRFSASGSGTEFTLQISRVEAEDVGVYYCMQSLQTFTFGGGTKVDIK , please.
Response given: 3.4 nM
